Source: PubChem BioAssay (NCI)

system: SW-620 colon; test: NCI-60 one-dose screen, 48 h (100 = growth as untreated, 0 = no growth, -100 = all killed); settings: 10 µM unless noted
This is part of a sample that, as a whole, favours compounds with a hit. Of some 83,000 tested, about 20% had one in any assay. Active and inactive are the calls of the source. Rule for the calls: active = growth percent below 10; inactive = the rest.
Some compounds, each annotated with its measured growth.
readout_name: growth

- NCCCCCCNc1cc(-c2cccc(OC(F)(F)F)c2)nc2ccc(N3CCCC3)cc12: -86.3% (active)
- Cc1cc(Cl)nc(N(CCNc2ccnc3cc(Cl)ccc23)Cc2ccccn2)n1: 56.6% (inactive)
- COc1cc2nc(-c3ccc(C(F)(F)F)cc3)cc(OCCN3CCCCC3)c2cc1OC: 98.8% (inactive)
- COc1cc2cc(CN3CCN(c4nccc(-c5ccc6ccccc6c5)n4)CC3)c(=O)[nH]c2cc1OC: -55% (active)
- CCCOc1ccc(/C=N/Nc2cc(C)nc3ccc(Cl)cc23)cc1: -75.5% (active)
- CNCCn1c(=O)c2cc(OC)c(OC)cc2c2ccc3cc4c(cc3c21)OCO4: -47.4% (active)
- CCOC(=O)c1cc(C#N)n2ccc3ccccc3c12: 97.9% (inactive)
- C=C1C(=O)O[C@H]2[C@H]1CC/C(CNC(=O)CCc1ccc(OC)cc1)=C\CC[C@@]1(C)O[C@@H]21: 19% (inactive)
- COc1cc(C(=O)Nc2cc3c(cc2Oc2cc(C)cc(C)c2)C(=O)N(C)[C@@H](CC(=O)N(C)O)C(=O)N3)c(Br)c(OC)c1OC: -2.61% (active)
- C=C(C)[C@@H]1CC[C@]2(C(=O)N[C@H](CO)Cc3ccccc3)CC[C@]3(C)[C@H](CC[C@@H]4[C@@]5(C)CCCNC(C)(C)[C@@H]5CC[C@]43C)[C@@H]12: -82.3% (active)
- COc1ccc2c(c1)oc1c(C)c3c(c(C)c12)C(=O)N(CCN1CCOCC1)C3=O: 93% (inactive)
- Cc1cc2nc3c4cc([N+](=O)[O-])ccc4n(CCN(C)C)c3nc2cc1C: -5.68% (active)
- COc1cc(NC(C)CCCNC(=O)CCC(=O)NCCCNCCCCCCCCCCNCCCNC(=O)CCC(=O)NCCCC(C)Nc2cc(OC)cc3cccnc23)c2ncccc2c1 (stereo not drawn): 73.4% [8 µM] (inactive)
- C=C1C(=O)O[C@H]2[C@H]1CC/C(CNS(=O)(=O)c1cccc3ccccc13)=C\CC[C@@]1(C)O[C@@H]21: -34.9% (active)
- O=S(=O)(Nc1ccc(-n2cnc3cc(-c4ccc(O)cc4)ccc32)cc1)c1ccccc1: 109% (inactive)
- Cc1cc2nc3c4cccc(O)c4n(CCN(C)C)c3nc2cc1C: 20.6% (inactive)
- CCNC(=O)Oc1ccc(/C(=C(\C)c2ccccc2)c2ccc(OCCCN(C)C)cc2)cc1: 94.5% (inactive)
- C/C(=N\NC(=O)CSc1nc2ccccc2c(=O)n1Cc1ccc(S(N)(=O)=O)cc1)c1ccc(F)cc1: 104% (inactive)

----------
Some molecules, each annotated with its measured growth.
tested on: NCI-H226 lung; assay: NCI-60 one-dose screen, 48 h (100 = growth as untreated, 0 = no growth, -100 = all killed); details: 10 µM unless noted
About 83,000 compounds went through this panel and 20% of them were active in at least one assay; those are over-represented in the sample as a whole.
readout_name: growth (%)

• NC1[C@H](c2c[nH]c3ccccc23)c2c([nH]c3ccccc23)[C@H]1c1c[nH]c2ccccc12 (some centres undefined) = 92.1
• COc1ccc(C(=O)Cn2c(C(=O)c3ccccc3)nc3ccccc32)cc1 = 38.5
• N#C/C(=C\c1c(-c2ccccc2)[nH]c2ccccc12)C(=O)c1ccc(Cl)cc1 = 69
• COc1cc(/C=N/NC(=O)c2cnn3c2NC(c2ccccc2)C3)ccc1OCc1ccccc1 (centres undefined) = 40.2
• C=C(C)[C@@H]1CC[C@]2(C(=O)N3CCN(C)CC3)CC[C@]3(C)[C@H](CC[C@@H]4[C@@]5(C)C/C(=C/c6ccncc6)C(=O)C(C)(C)[C@@H]5CC[C@]43C)[C@@H]12 = 61.9
• Nc1c(S(=O)(=O)O)cc2c3c(cccc13)C(=O)OC2=O = 105
• O=C1c2ccccc2CCC12OC2c1cn(-c2ccccc2)nc1-c1ccc(Cl)cc1 (centres undefined) = 75.1
• COc1ccc(C(=O)CSc2nc(-c3cc(OC)ccc3OC)cc(-c3ccc(Cl)cc3)c2C#N)cc1 = -2.99
• Cc1ccc(-c2[nH][nH]c(=O)c2-c2nc3ccccc3s2)cc1 = 95.1
